# test-details: in vivo
# study-conditions: mouse, in vivo, 3 mg/kg

{"columns": ["entry-smiles", "Kp"],
 "data": [
  ["COc1ccc2c3c1O[C@H]1C[C@@H](O)C=C[C@@]31CCN(C)C2", "~1.3"]
]}

----------
# test-details: in vivo
# study-conditions: i.v. injection of 3 mg/kg
measurement-type: Co (Brain), highest concentration achieved in mouse brain (ng/mL)

{"columns": ["molecule", "reported-result"],
 "data": [
  ["CCC(C)C(=O)O[C@H]1C=C[C@@]23CCN(C)Cc4ccc(OC)c(c42)OC3C1 (stereo partly shown)", 4665],
  ["CCC(=O)O[C@H]1C=C[C@@]23CCN(C)Cc4ccc(OC)c(c42)O[C@H]3C1", 1985],
  ["COc1ccc2c3c1OC1C[C@@H](OC(=O)c4ccccc4)C=C[C@@]31CCN(C)C2 (stereo partly shown)", 4812],
  ["COc1ccc2c3c1OC1C[C@@H](OC(=O)C4CC4)C=C[C@@]31CCN(C)C2 (stereo partly shown)", 1245],
  ["COc1ccc2c3c1O[C@H]1C[C@@H](OC(=O)C(C)C)C=C[C@@]31CCN(C)C2", 3166],
  ["CCCCCC(=O)O[C@H]1C=C[C@@]23CCN(C)Cc4ccc(OC)c(c42)O[C@H]3C1", 2150],
  ["COc1ccc2c3c1O[C@H]1C[C@@H](O)C=C[C@@]31CCN(C)C2", 1741]
]}
